compounds and their reported IC50
- Tested on: MiaPaCa-2
- measurement.description: MTT assay, MiaPaCa-2
- condition.context: Homo sapiens, MIA PaCa-2, read-out: IC50 Values MiaPaCa-2, MTT assay; Mean ± SD, three independent experiments
Give the value in µM but do not write µM after it.

Some solved cases for reference:
compound	subject.of.test	metric	reported
O=C(Nc1cccc2cccnc12)c1ccc(Br)cn1 [QN529]	MiaPaCa-2	IC50	1.83
O=C(Nc1cccc2cccnc12)c1cnc(Cl)cn1 [QN573]	MiaPaCa-2	IC50	7
O=C(Nc1cccc2cccnc12)c1cccnn1 [QN566]	MiaPaCa-2	IC50	8.5
O=C(Nc1cccc2cccnc12)c1cnccn1 [QN523]	MiaPaCa-2	IC50	0.11

# compound O=C(Nc1cccc2cccnc12)c1ncccn1 [QN567] ; its IC50 = 0.33
